The values you see were collected from patent US10941121B2.

method: Parallel Artificial Membrane Permeability Assay (PAMPA)
Type: in vitro ADME
conditions: value in brackets in the PAMPA cell
# PAMPA membrane retention (RM %) listing for each entry below
Please state the figure in %; there is no need to write the unit.

Worked cases, answers included:
Look up PAMPA membrane retention (RM %) of CCCCn1nnc(-c2ccc(NC(=O)Nc3ccccc3C)cc2)n1 and report it. 24.8

Look up PAMPA membrane retention (RM %) of CCCCc1cn(-c2ccc(NC(=O)Nc3ccccc3C)cc2)nn1 [Compound 20a] and report it. 19.1

Look up PAMPA membrane retention (RM %) of COCCc1cn(-c2ccc(NC(=O)Nc3ccccc3C)cc2)nn1 [Compound 20f] and report it. 7.4

Look up PAMPA membrane retention (RM %) of CC(C)CCc1cn(-c2ccc(NC(=O)Nc3ccccc3C(F)(F)F)cc2)nn1 [Compound 22b] and report it. 24.8

Look up PAMPA membrane retention (RM %) of Cc1ccccc1NC(=O)Nc1ccc(-n2cc(CCC(C)C)nn2)cc1 [Compound 20b] and report it. 26.7

Look up PAMPA membrane retention (RM %) of CCCCc1cn(-c2ccc(NC(=O)Nc3ccccc3C(F)(F)F)cc2)nn1 [Compound 22a] and report it. 23.9

Others:
Look up PAMPA membrane retention (RM %) of CCCCc1cn(-c2ccc(NC(=O)Nc3ccccc3C(F)(F)F)cc2F)nn1 and report it. 30.4

Look up PAMPA membrane retention (RM %) of Cc1c(Cl)cccc1NC(=O)Nc1ccc(-n2cc(CCC(C)C)nn2)cc1 [Compound 21b] and report it. 59.1

---

testedSystem: DDX3 Helicase (Homo sapiens, UniProt O00571)
Sequence (O00571 whole entry): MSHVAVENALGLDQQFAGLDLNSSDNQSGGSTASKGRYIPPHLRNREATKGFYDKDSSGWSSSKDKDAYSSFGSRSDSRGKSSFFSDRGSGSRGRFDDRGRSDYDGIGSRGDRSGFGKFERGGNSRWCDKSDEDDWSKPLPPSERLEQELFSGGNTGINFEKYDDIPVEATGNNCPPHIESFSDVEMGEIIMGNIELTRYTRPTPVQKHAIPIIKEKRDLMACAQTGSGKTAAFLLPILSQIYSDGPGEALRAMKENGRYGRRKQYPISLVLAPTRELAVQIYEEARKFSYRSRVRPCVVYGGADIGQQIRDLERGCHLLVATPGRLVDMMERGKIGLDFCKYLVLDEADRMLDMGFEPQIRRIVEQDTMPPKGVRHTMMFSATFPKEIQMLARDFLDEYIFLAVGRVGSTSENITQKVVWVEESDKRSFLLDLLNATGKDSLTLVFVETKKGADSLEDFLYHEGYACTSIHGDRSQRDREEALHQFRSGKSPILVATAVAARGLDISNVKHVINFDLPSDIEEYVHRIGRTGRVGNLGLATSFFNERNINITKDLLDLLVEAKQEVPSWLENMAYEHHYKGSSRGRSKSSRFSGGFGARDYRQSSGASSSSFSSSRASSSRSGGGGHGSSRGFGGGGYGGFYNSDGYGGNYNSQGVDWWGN
conditions: read-out: ID50 (μM) against DDX3 Helicase; n.a. = compound not active
# IC50 listing for each entry below
Please state the figure in µM; there is no need to write the unit.

Worked cases, answers included:
Look up IC50 of CC(C)CC(=O)OCCc1cn(-c2ccc(NC(=O)Nc3ccccc3C(F)(F)F)cc2)nn1 and report it. 0.4

Look up IC50 of Cc1ccccc1NC(=O)Nc1ccc(-n2cc(CCOC(=O)CC(C)C)nn2)cc1 and report it. 1.3

Look up IC50 of Cc1ccccc1NC(=O)Nc1ccc(-n2cc(CCCN(C)C)nn2)cc1 [Compound 35i] and report it. 2.9

Look up IC50 of CC(C)CCc1cn(-c2ccc(NC(=O)Nc3ccccc3F)cc2)nn1 [Compound 55a] and report it. 0.12

Others:
Look up IC50 of CCOP(=O)(OCC)OCCc1cn(-c2ccc(NC(=O)Nc3ccccc3C)cc2)nn1 and report it. 0.9

Look up IC50 of CC(C)CCc1cn(-c2ccc(NC(=O)Nc3cccc(F)c3)cc2)nn1 [Compound 55b] and report it. 0.2

Look up IC50 of Cc1ccccc1NC(=O)Nc1ccc(-n2cc(C(F)(F)C(F)(F)C(F)(F)C(F)(F)F)nn2)cc1 [Compound 20c] and report it. 6

Look up IC50 of CCCCc1cn(-c2ccc(NC(=O)Nc3ccccc3C)cc2)nn1 [Compound 20a] and report it. 0.3

---

method: in vitro
conditions: hamster
assayMetric: CC50

Look up CC50 of CCOP(=O)(OCC)OCCc1cn(-c2ccc(NC(=O)Nc3ccccc3C)cc2)nn1 and report it. > 50 µM
